molecular target: UniProt O15379; assay: HDAC enzyme assay, HDAC3; details: read-out: HDAC3 IC50
Sequence (O15379 whole entry): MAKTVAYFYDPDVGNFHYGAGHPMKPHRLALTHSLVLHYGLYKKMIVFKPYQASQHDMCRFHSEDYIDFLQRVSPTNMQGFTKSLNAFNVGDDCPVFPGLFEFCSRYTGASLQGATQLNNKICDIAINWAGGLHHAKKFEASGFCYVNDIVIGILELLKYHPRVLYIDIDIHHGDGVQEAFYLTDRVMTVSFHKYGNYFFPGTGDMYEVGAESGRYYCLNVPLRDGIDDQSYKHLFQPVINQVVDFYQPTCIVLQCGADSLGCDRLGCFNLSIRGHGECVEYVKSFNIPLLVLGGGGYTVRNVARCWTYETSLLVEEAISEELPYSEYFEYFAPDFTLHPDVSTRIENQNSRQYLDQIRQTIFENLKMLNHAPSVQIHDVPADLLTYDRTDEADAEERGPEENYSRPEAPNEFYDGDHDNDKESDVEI
Sequence (Q9Y618 395-489 partner): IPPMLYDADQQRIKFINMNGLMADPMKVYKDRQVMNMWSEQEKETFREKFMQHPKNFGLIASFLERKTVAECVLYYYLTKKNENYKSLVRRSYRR
outcome measure: pIC50
Here pIC50 is given on a logarithmic scale as minus log10 of the concentration in mol/L.

Data request: May I ask what pIC50 has been recorded for CC(C)(Nc1ncc(C(=O)NO)cn1)c1ccc(C(F)(F)F)cc1 ?
Data returned: 5.62

Data request: Which measured pIC50 value corresponds to O=C(NO)c1cnc(NC2(c3ccc(F)c(Cl)c3)CC2)nc1 ?
Data returned: 7.21

Data request: Entry under review: O=C(NO)c1cnc(NC2(c3ccc(F)cc3)CC2)nc1 . Reported pIC50?
Data returned: 6.92

Data request: So what's the measured pIC50 for this one? O=C(NO)c1cnc(NC2CCCCC2)nc1
Data returned: 5.96

Data request: Which pIC50 is reported for this compound? CC1(Nc2ncc(C(=O)NO)cn2)CCCCC1
Data returned: 5.46

###

biological target: UniProt Q13547; assay: HDAC enzyme assay, HDAC1; conditions: ratio HDAC1/HDAC6
outcome measure: HDAC1 fold over HDAC6 IC50 (selectivity for HDAC6)

Data request: What measured HDAC1 fold over HDAC6 IC50 (selectivity for HDAC6) goes with O=C(NO)c1cnc(Nc2ccccc2)nc1 [Compound 1] ?
Data returned: 20x

###

molecular target: HDAC1 (Homo sapiens (Human)); assay: HDAC enzyme assay, HDAC1; settings: read-out: HDAC1 IC50
Sequence (Q13547 whole entry): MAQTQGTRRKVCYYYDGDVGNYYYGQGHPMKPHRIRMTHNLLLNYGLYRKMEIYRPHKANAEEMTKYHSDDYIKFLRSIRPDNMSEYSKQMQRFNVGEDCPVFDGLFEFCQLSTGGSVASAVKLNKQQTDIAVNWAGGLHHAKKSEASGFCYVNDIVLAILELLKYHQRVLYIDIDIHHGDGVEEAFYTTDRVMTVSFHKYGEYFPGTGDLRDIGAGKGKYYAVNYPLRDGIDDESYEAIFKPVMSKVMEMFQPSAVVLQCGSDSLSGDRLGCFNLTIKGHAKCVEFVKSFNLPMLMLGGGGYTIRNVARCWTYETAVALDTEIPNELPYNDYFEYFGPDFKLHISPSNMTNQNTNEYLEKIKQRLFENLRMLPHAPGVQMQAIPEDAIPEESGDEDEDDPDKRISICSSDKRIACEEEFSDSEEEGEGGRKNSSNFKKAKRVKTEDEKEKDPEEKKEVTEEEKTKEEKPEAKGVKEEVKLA
Please provide measured pIC50 for the entries that follow.
Keep in mind that pIC50 stands for -log10 of concentration in molar terms.

Data request: Name the recorded pIC50 for COc1ccc(C2(Nc3ncc(C(=O)NO)cn3)CCCCC2)cc1 [Compound 122] .
Data returned: 6.05

Data request: Please give the measured pIC50 for this compound: Cc1cc(C(C)(C)Nc2ncc(C(=O)NO)cn2)ccc1F [Compound 78]
Data returned: 6.22

Data request: Consider the compound COc1cc(F)ccc1CNc1ncc(C(=O)NO)cn1 [Compound 49] and give its measured pIC50.
Data returned: 6.66

Data request: Name the reported pIC50 value associated with the compound O=C(NO)c1cnc(NCc2cccnc2)nc1 [Compound 106]
Data returned: 7.04

Data request: State the recorded pIC50 for this entry: O=C(NO)c1cnc(NC2(c3cc(Cl)cc(Cl)c3)CC2)nc1 [Compound 146]
Data returned: 7.80

Data request: Using the record for O=C(NO)c1cnc(NC2(c3ccc(C(F)(F)F)cc3)CC2)nc1 [Compound 135] , report its pIC50.
Data returned: 6.83

Data request: Which pIC50 reading was recorded for the compound O=C(NO)c1cnc(Nc2cccc(C(F)(F)F)c2)nc1 [Compound 22] ?
Data returned: 6.65

Data request: Need pIC50 of O=C(NO)c1cnc(NCCc2ccccc2Cl)nc1 [Compound 39] , thanks.
Data returned: 6.58

Data request: Look up pIC50 for this compound: COc1ccc(C2(Nc3ncc(C(=O)NO)cn3)CC2)cc1OC [Compound 138]
Data returned: 7.30

Data request: Give its pIC50 value. Item: O=C(NO)c1cnc(NCCc2ccccc2-c2ccccc2)nc1 [Compound 59]
Data returned: 6.22

###

molecular target: HDAC6 (Homo sapiens (Human), UniProt Q9UBN7); settings: read-out: HDAC6 IC50
Sequence (Q9UBN7 whole entry): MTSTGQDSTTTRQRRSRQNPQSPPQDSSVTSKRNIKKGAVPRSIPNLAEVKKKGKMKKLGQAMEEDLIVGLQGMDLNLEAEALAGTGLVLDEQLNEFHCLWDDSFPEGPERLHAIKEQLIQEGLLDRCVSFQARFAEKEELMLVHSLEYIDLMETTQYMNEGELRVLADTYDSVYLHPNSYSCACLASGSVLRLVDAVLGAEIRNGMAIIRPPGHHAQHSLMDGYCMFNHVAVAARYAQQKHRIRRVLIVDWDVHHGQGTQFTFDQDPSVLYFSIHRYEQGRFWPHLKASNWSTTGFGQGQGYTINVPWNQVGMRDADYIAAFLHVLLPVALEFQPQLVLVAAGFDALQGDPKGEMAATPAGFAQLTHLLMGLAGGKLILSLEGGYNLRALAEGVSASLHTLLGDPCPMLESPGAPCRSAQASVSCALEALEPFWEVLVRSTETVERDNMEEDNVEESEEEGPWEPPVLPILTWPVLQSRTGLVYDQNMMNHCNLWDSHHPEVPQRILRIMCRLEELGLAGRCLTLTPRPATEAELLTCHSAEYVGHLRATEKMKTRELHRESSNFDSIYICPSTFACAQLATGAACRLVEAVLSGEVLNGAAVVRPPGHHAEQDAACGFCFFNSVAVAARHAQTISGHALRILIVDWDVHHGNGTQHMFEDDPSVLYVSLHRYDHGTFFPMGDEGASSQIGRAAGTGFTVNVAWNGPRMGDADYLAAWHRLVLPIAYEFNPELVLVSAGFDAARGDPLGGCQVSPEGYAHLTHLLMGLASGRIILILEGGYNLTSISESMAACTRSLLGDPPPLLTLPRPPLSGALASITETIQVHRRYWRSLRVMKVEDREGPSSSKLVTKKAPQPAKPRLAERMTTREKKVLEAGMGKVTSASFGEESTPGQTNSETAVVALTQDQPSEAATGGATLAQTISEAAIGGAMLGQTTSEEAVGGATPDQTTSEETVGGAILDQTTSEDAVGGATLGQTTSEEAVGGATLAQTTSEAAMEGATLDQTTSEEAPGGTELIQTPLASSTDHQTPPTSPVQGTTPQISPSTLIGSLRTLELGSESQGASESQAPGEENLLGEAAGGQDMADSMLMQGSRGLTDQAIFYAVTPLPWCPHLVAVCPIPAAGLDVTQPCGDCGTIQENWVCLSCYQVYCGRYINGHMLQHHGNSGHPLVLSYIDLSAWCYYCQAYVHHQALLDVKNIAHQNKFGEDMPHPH
outcome measure: log10(IC50) (log10 of the value in nM)
Record value = log10 of IC50 given in nM.

Data request: Quick one: log10(IC50) of O=C(NO)c1cnc(Nc2ccc(F)cc2)nc1 [Compound 3] ?
Data returned: 0.90

Data request: Returns the measured log10(IC50) for the input compound. Input: O=C(NO)c1cnc(Nc2cc(Cl)cc(OC(F)(F)F)c2)nc1 [Compound 27]
Data returned: 0.85

Data request: Query (compound): O=C(NO)c1cnc(NCCc2c(Cl)cccc2Cl)nc1 [Compound 63] ; field requested: log10(IC50)
Data returned: 1.28

Data request: Given the entry O=C(NO)c1cnc(NC2(c3ccc(F)cc3F)CC2)nc1 [Compound 123] , report its measured log10(IC50).
Data returned: 0.48

Data request: Quick check: log10(IC50) of O=C(NO)c1cnc(NC2(c3cccc(F)c3)CCOCC2)nc1 [Compound 149] ?
Data returned: 0.60

Data request: Look up log10(IC50) for this compound: O=C(NO)c1cnc(Nc2cccc(N3CCOCC3)c2)nc1 [Compound 29]
Data returned: 0.90

Data request: Given CC(C)(Nc1ncc(C(=O)NO)cn1)c1ccc(Cl)c(Cl)c1 [Compound 80] , state its recorded log10(IC50).
Data returned: 0.30

Data request: Please report the recorded log10(IC50) for Cc1cc(F)cc(Nc2ncc(C(=O)NO)cn2)c1 [Compound 24] .
Data returned: 0.70

Data request: Which log10(IC50) value belongs to O=C(NO)c1cnc(NCCc2c[nH]c3ccccc23)nc1 [Compound 43] ?
Data returned: 0.60

Data request: log10(IC50) lookup needed for C[C@@H](Nc1ncc(C(=O)NO)cn1)c1ccccc1 [Compound 66] , thanks.
Data returned: 0.00

###

biological target: UniProt Q13547; assay: HDAC enzyme assay, HDAC1; settings: ratio HDAC1/HDAC6
outcome measure: HDAC1 fold over HDAC6 IC50 (selectivity for HDAC6)

Data request: Name the recorded HDAC1 fold over HDAC6 IC50 (selectivity for HDAC6) for Cc1cc(C2(Nc3ncc(C(=O)NO)cn3)CC2)ccc1F .
Data returned: (3x)

Data request: GET /values?readout=HDAC1 fold over HDAC6 IC50 (selectivity for HDAC6)&item= O=C(NO)c1cnc(NC2c3ccccc3-c3ccccc32)nc1
Data returned: (48x)

###

target: UniProt:Q13547; test: HDAC enzyme assay, HDAC1; details: read-out: HDAC1 IC50
Answer each item with its documented IC50.
Answer in nM, number only, no unit symbol.

Data request: So what does the record say about IC50 for O=C(NO)c1cnc(NC2(c3ccc(Cl)c(Cl)c3)CC2)nc1 [Compound 141] ?
Data returned: 13

Data request: For the compound shown here, Cc1cc(Nc2ncc(C(=O)NO)cn2)ccn1 [Compound 31] , give the reported IC50.
Data returned: 206

Data request: Param item = O=C(NO)c1cnc(NCCc2c[nH]c3ccccc23)nc1 [Compound 43] ; retrieve measured IC50.
Data returned: 90

Data request: Look up IC50 for this compound: O=C(NO)c1cnc(NCc2ccc(F)c(Cl)c2)nc1 [Compound 53]
Data returned: 24

Data request: Value lookup for IC50; key = O=C(NO)c1cnc(NC2(c3c(F)cccc3F)CC2)nc1 [Compound 124]
Data returned: 5

Data request: Item under review: O=C(NO)c1cnc(Nc2cccc(N3CCOCC3)c2)nc1 [Compound 29] . Reported IC50?
Data returned: 464

Data request: Item under review: Cc1cc(C(F)(F)F)cc(C2(Nc3ncc(C(=O)NO)cn3)CC2)c1 [Compound 147] . Reported IC50?
Data returned: 64

Data request: For the compound O=C(NO)c1cnc(Nc2cc(Cl)ccc2Cl)nc1 [Compound 12] , what IC50 is on record?
Data returned: 212

Data request: Entry COc1cc(Nc2ncc(C(=O)NO)cn2)cc(OC)c1 [Compound 23] has what IC50?
Data returned: 155

Data request: Sample O=C(NO)c1cnc(NCc2ccc(Cl)cc2)nc1 [Compound 36] — what was its IC50?
Data returned: 40

###

biological target: HDAC6 (Homo sapiens (Human)); conditions: read-out: HDAC6 IC50
outcome measure: pIC50
By convention, pIC50 is the negative base-10 log of a molar concentration.

Data request: Which pIC50 is listed for O=C(NO)c1cnc(NC2(c3cc(F)cc(F)c3)CC2)nc1 [Compound 132] ?
Data returned: 8.40

Data request: What value of pIC50 has been reported for the following compound? O=C(NO)c1cnc(NC2(c3ccc(F)cc3)CC2)nc1 [Compound 81]
Data returned: 8.52

Data request: Please report the recorded pIC50 for COc1ccccc1CNc1ncc(C(=O)NO)cn1 [Compound 45] .
Data returned: 8.40

Data request: Find the recorded pIC50 belonging to O=C(NO)c1cnc(NC2(c3cccs3)CCCCC2)nc1 [Compound 154] and report it.
Data returned: 8.30

Data request: Requested read-out: pIC50. Entry: COc1ccc(C2(Nc3ncc(C(=O)NO)cn3)CC2)cc1OC [Compound 138]
Data returned: 8.10

Data request: Tell me the measured pIC50 of O=C(NO)c1cnc(NC2(c3ccc(F)c(F)c3)CC2)nc1 [Compound 140] , please.
Data returned: 8.15

Data request: Please look up its pIC50: O=C(NO)c1cnc(NC2c3ccccc3-c3ccccc32)nc1 [Compound 111]
Data returned: 7.72

Data request: Fill blank: measured pIC50 of the compound COc1cc(Nc2ncc(C(=O)NO)cn2)cc(OC)c1 [Compound 23] is ____.
Data returned: 8.52

Data request: What value of measured pIC50 is listed for O=C(NO)c1cnc(NC2(c3ccccc3)CCOCC2)nc1 [Compound 95] ?
Data returned: 8.52

Data request: What pIC50 value was documented for this compound, CC(Nc1ncc(C(=O)NO)cn1)(c1ccccc1)c1ccccc1 [Compound 79] ?
Data returned: 8.22
